assayedSystem: E3 ubiquitin-protein ligase UHRF1 (Homo sapiens)
assayNotes: blockers of UHRF1 binding to methyl-oligo – biochemical, TR-FRET, human UHRF1, dose response, counter-screen for MBD2 inhibitor project, late-stage follow-up (AID 1053170)
conditionDetails: TR-FRET UHRF1-methylated DNA binding
Active and inactive are the calls of the source. How the calls were made is not given here.

compound	assayedSystem	IC50
COc1ccc(NC(=O)COC(=O)CCc2ccc(S(=O)(=O)N3CCOCC3)cc2)cc1Cl	E3 ubiquitin-protein ligase UHRF1 (Homo sapiens)	> 43.8 µM (inactive)
N=C1C(c2nc3ccccc3s2)=C(O)CN1NC(=O)c1c[nH]c2ccccc12	E3 ubiquitin-protein ligase UHRF1 (Homo sapiens)	> 43.8 µM (inactive)
O=C(CSc1nc(-c2ccccc2)c(-c2ccccc2)o1)N1CCOCC1	E3 ubiquitin-protein ligase UHRF1 (Homo sapiens)	> 43.8 µM (inactive)
CCOc1ccc(S(=O)(=O)N2CCCC(C(=O)NCC3CCCO3)C2)cc1Cl (stereo not given)	E3 ubiquitin-protein ligase UHRF1 (Homo sapiens)	> 43.8 µM (inactive)
CCOC(=O)c1cnc2c(ccc3ccccc32)c1NCCCN(C)C	E3 ubiquitin-protein ligase UHRF1 (Homo sapiens)	inactive
COc1ccc2c(=O)c3c(=O)n(-c4ccccc4)c(-c4ccc(C)cc4)nc3oc2c1	E3 ubiquitin-protein ligase UHRF1 (Homo sapiens)	> 43.8 µM (inactive)
COc1ccc(NC(=O)CN2CCN(c3ccccc3C)CC2)cc1	E3 ubiquitin-protein ligase UHRF1 (Homo sapiens)	> 43.8 µM (inactive)
CCOC(=O)c1ccc(NC(=O)COc2ccc(CNCCO)cc2OCC)cc1	E3 ubiquitin-protein ligase UHRF1 (Homo sapiens)	> 43.8 µM (inactive)
c1ccc2c(c1)C1=NCCN1c1ccccc1-2	E3 ubiquitin-protein ligase UHRF1 (Homo sapiens)	inactive
COc1ccc(C(=O)N2CCC(C(=O)Nc3ccc(C)cc3)CC2)cc1	E3 ubiquitin-protein ligase UHRF1 (Homo sapiens)	> 43.8 µM (inactive)

Each recorded value in this set is attributed to PubChem BioAssay AID1053170.
